Just for reference, ChEMBL document CHEMBL1158059 is where these values come from.

Sequence of the target: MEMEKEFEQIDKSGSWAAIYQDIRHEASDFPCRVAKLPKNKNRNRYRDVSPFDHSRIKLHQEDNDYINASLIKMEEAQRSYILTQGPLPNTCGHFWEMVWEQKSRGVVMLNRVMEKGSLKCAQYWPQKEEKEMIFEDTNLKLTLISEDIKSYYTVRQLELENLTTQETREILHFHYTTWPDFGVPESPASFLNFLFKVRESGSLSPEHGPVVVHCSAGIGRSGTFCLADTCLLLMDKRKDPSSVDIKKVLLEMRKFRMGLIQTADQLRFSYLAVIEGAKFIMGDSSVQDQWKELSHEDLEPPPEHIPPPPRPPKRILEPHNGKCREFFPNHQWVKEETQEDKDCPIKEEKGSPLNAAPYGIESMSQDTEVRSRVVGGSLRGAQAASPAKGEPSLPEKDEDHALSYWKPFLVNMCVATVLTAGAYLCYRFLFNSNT
reported-metric: IC50

Incoming: So what's the measured IC50 for this one? `C=C(CC[C@@H](C)[C@H]1CC[C@H]2[C@@H]3CC=C4C(=O)[C@](O)(C(=O)OCC)C[C@]4(C)[C@H]3CC[C@]12C)C(C)C`
Outgoing: > 21.2 µM

----------
assayed-target: Prostaglandin G/H synthase 2 (Homo sapiens, UniProt P35354)
Sequence (P35354 whole entry): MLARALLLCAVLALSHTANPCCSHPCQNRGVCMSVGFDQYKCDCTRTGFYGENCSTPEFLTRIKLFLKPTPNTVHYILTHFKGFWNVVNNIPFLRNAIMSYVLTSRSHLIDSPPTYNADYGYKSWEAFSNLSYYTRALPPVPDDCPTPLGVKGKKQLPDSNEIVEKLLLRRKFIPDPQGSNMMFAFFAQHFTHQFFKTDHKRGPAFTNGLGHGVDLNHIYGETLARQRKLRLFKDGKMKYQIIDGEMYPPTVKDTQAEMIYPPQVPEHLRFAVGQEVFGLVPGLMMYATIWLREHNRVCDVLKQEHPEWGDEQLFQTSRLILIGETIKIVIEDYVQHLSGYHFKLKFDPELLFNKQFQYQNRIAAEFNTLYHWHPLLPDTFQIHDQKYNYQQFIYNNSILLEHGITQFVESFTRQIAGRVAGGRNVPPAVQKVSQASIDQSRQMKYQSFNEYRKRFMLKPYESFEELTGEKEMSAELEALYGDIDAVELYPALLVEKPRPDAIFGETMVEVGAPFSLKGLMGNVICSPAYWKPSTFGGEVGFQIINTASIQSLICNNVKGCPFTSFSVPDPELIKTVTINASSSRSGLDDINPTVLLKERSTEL
pIC50: −log10 of the molar value.
reported-metric: pIC50

Incoming: Could you tell me which pIC50 is on file for `C=C(CC[C@@H](C)[C@H]1CC[C@H]2[C@@H]3CC=C4C(=O)[C@](O)(C(=O)OCC)C[C@]4(C)[C@H]3CC[C@]12C)C(C)C` ?
Outgoing: < 4.67

----------
assayed-target: Acetylcholinesterase (Homo sapiens, UniProt P22303)
Sequence (P22303 whole entry): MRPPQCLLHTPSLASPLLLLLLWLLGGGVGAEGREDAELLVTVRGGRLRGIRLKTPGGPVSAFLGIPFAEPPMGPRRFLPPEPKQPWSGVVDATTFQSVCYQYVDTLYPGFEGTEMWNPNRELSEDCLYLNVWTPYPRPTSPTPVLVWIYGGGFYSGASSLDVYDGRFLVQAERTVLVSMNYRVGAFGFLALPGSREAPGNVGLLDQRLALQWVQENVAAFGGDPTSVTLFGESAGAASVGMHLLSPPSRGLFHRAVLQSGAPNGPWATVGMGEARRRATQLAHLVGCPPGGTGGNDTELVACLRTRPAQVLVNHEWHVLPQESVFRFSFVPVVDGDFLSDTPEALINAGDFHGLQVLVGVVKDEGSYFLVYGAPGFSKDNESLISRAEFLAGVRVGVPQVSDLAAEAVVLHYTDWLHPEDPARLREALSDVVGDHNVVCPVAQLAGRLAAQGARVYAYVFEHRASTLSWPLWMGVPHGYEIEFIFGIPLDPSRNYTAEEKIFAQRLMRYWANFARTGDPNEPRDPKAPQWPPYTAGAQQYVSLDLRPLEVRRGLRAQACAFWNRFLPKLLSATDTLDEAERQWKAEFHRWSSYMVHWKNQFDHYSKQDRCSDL
test: Inhibition of AChE
reported-metric: IC50

Incoming: Field request: IC50 | item: `C=C(CC[C@@H](C)[C@H]1CC[C@H]2[C@@H]3CC=C4C(=O)[C@](O)(C(=O)OCC)C[C@]4(C)[C@H]3CC[C@]12C)C(C)C`
Outgoing: > 21.2 µM
